test-target: T1, recombinant soluble human GARP-TGFβ1 complex (human, UniProt Q14392 20-628; P01137 30-390)
T1 construct: co-expressed in HEK293E, purified by the Strep-Tag; TGFβ consists of LAP and mature TGFβ; also called shGARP-TGFβ; rhGARP-TGFβ
T1 sequence (Q14392 other isoform, or with tags, fused parts or gaps limits assumed, chain 1 of 2): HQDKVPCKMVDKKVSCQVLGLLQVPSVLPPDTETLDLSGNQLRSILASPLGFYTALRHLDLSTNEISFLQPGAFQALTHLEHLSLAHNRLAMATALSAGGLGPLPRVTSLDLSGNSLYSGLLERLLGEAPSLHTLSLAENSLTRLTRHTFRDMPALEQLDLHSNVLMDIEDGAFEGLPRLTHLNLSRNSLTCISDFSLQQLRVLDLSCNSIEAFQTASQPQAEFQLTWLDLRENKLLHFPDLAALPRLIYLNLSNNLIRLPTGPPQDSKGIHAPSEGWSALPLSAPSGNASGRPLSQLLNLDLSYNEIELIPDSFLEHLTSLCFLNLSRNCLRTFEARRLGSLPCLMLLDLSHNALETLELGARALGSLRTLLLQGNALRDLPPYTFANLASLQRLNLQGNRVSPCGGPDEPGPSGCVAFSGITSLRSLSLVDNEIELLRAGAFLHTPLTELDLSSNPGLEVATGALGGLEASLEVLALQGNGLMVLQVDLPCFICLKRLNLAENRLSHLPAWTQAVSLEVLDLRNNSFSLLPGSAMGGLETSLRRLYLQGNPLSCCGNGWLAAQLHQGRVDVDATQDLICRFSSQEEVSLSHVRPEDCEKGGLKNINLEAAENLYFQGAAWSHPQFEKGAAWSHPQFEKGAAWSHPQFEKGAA
T1 sequence (P01137 30-390 limits assumed, chain 2 of 2): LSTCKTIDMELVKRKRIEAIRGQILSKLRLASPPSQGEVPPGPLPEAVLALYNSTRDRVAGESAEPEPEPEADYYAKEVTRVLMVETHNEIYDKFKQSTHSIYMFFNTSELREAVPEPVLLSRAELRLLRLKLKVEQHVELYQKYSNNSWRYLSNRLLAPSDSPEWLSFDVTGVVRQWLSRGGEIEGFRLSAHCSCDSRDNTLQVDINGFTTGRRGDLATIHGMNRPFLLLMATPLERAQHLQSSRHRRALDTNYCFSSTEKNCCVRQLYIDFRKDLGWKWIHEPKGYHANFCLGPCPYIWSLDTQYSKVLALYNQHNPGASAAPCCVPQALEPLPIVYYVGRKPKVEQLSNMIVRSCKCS
assay-explanation: SPR (Biacore), hGARP-TGFβ1 immobilised
metric-name: fold improvement of ka (reference LHG-10-D) (fold)
The reply should be a number in fold, with the unit left off.

{"columns": ["binder", "observed-measurement"],
 "data": [
  ["LHG-10.6-D (antibody, human IgG1, V domains shown, also called LHG-10.6N297Q) VH: EVQLVQPGAELRNSGASVKVSCKASGYRFTSYYIDWVRQAPGQGLEWMGRIDPEDGGTKYAQKFQGRVTFTADTSTSTAYVELSSLRSEDTAVYYCARNEWETVVVGDLMYEYEYWGQGTQVTVSS VL: DIQMTQSPSSLSASLGDRVTITCQASQSISSYLAWYQQKPGQAPNILIYGASRLKTGVPSRFSGSGSGTSFTLTISGLEAEDAGTYYCQQYASVPVTFGQGTKVELK", 0.5]
]}

Attention now turns to another entry.
Name the recorded fold improvement of ka (reference LHG-10-D) of the binder listed here: LHG-10.4-D (antibody, human IgG1, V domains shown) VH: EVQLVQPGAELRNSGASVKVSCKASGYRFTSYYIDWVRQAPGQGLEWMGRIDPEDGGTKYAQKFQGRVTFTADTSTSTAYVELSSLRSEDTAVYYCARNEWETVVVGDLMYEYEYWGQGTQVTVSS VL: DIQMTQSPSSLSASLGDRVTITCQASQSISSYLAWYQQKPGQAPKLLIYGTSRLKTGVPSRFSGSGSGTSFTLTISGLEAEDAGTYYCQQYYSAPVTFGQGTKVELK
0.4
